The measurements presented in this section are drawn from PubChem BioAssay (EPA / NIEHS).

- experimentalSystem: human Phosphodiesterase 5 (PDE5), PDE5A (gene 8654)
- assayRemarks: NVS_ENZ_hPDE5: NovaScreen (NVS) Enzymatic Assay for human Phosphodiesterase 5 (PDE5) (AID 2283194)
Results filed as inconclusive are left out. The source made the active and inactive calls. Rule for the calls: active = hit-call score of the fitted dose curve at least 0.9, where 1 is the maximum; inconclusive = response in the unintended direction; inactive = score below 0.9.
Outcomes: T (active), F (inactive)

{"compound": "FC(F)(F)C(F)(F)C(F)(F)C(F)(F)C(F)(F)C(F)(F)CCI", "experimentalSystem": "human Phosphodiesterase 5 (PDE5), PDE5A (gene 8654)", "class": "T"}
{"compound": "O=c1[nH]cc(F)c(=O)[nH]1", "experimentalSystem": "human Phosphodiesterase 5 (PDE5), PDE5A (gene 8654)", "class": "F"}
{"compound": "CC=Cc1ccc(O)c(OC)c1", "experimentalSystem": "human Phosphodiesterase 5 (PDE5), PDE5A (gene 8654)", "class": "F"}
{"compound": "CC1=C(/C=C/C(C)=C/C=C/C(C)=C/CO)C(C)(C)CCC1", "experimentalSystem": "human Phosphodiesterase 5 (PDE5), PDE5A (gene 8654)", "class": "F"}
{"compound": "Cc1cc(NC(=O)C(=O)O)cc(C)c1Oc1ccc(O)c2c1CCC2", "experimentalSystem": "human Phosphodiesterase 5 (PDE5), PDE5A (gene 8654)", "class": "T"}
{"compound": "CC(=O)Oc1ccccc1C(=O)O", "experimentalSystem": "human Phosphodiesterase 5 (PDE5), PDE5A (gene 8654)", "class": "F"}
{"compound": "CNC(=O)[C@H]1O[C@@H](n2cnc3c(NCc4cc(Cl)ccc4OCc4cc(C)no4)ncnc32)[C@H](O)[C@@H]1N", "experimentalSystem": "human Phosphodiesterase 5 (PDE5), PDE5A (gene 8654)", "class": "F"}
{"compound": "Cc1nc(-c2ccc3c(c2)CCN(CCC2CCC(NC(=O)/C=C/c4ccc(F)cc4)CC2)CC3)no1 (centres undefined)", "experimentalSystem": "human Phosphodiesterase 5 (PDE5), PDE5A (gene 8654)", "class": "F"}
{"compound": "Nc1ccccc1N", "experimentalSystem": "human Phosphodiesterase 5 (PDE5), PDE5A (gene 8654)", "class": "T"}
